Biological target: hMAO-B (Homo sapiens)
Sequence (P27338 whole entry): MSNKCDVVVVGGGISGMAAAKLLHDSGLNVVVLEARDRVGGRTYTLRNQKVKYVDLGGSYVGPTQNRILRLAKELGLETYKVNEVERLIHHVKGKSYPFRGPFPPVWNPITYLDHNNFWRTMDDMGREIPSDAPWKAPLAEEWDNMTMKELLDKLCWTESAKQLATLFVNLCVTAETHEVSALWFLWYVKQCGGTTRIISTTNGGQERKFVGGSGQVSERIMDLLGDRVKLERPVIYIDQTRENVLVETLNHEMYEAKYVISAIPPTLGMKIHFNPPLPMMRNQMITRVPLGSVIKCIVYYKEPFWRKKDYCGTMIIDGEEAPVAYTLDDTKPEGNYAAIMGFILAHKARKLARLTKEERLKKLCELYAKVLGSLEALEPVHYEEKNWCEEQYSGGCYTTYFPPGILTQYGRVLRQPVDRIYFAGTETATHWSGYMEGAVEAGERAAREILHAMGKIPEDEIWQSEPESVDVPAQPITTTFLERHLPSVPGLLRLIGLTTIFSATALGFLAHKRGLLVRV
Test: hMAO-B inhibition assay
Format: biochemical
Settings: read-out: hMAO-B Inhibition (%), at 1 µM
Everything with inhibition at 1 µM lower than 20% is 0 (no); everything else, including exactly 20%, is 1 (yes).

# mol, group
data = [
    ("COc1ccc(/C=C/C(=O)c2ccco2)cc1O", "0 (no)"),
    ("COc1ccc(/C=C/C(=O)c2cccs2)cc1OC", "0 (no)"),
    ("O=C(/C=C/c1ccc2ccccc2c1)c1cccs1", "1 (yes)"),
    ("COc1ccc(/C=C/C(=O)c2ccc(Cl)s2)cc1OC", "0 (no)"),
]

Ask: Given COc1ccc(/C=C/C(=O)c2cccs2)cc1 , state whether its inhibition at 1 µM is at least 20%.
Reply: 1 (yes)

Ask: Try this molecule next: COc1ccc(/C=C/C(=O)c2ccc(C)s2)cc1O
Reply: 1 (yes)

Ask: Try this molecule next: COc1ccc(/C=C/C(=O)c2cccs2)cc1O
Reply: 0 (no)

Ask: Try this molecule next: O=C(/C=C/c1ccccc1)c1cccs1
Reply: 1 (yes)

Ask: Try this molecule next: COc1ccc(/C=C/C(=O)c2ccc(C)o2)cc1O
Reply: 0 (no)

Ask: Try this molecule next: COc1ccc(/C=C/C(=O)c2ccc(Br)s2)cc1OC
Reply: 0 (no)

Ask: Try this molecule next: COc1ccc(/C=C/C(=O)c2ccc[nH]2)cc1O
Reply: 0 (no)
